Reported inhibition at 0.03 µM values follow for various compounds
# experimental-system: PARP-1 enzyme (Homo sapiens (Human), UniProt P09874)
# Sequence (P09874 whole entry): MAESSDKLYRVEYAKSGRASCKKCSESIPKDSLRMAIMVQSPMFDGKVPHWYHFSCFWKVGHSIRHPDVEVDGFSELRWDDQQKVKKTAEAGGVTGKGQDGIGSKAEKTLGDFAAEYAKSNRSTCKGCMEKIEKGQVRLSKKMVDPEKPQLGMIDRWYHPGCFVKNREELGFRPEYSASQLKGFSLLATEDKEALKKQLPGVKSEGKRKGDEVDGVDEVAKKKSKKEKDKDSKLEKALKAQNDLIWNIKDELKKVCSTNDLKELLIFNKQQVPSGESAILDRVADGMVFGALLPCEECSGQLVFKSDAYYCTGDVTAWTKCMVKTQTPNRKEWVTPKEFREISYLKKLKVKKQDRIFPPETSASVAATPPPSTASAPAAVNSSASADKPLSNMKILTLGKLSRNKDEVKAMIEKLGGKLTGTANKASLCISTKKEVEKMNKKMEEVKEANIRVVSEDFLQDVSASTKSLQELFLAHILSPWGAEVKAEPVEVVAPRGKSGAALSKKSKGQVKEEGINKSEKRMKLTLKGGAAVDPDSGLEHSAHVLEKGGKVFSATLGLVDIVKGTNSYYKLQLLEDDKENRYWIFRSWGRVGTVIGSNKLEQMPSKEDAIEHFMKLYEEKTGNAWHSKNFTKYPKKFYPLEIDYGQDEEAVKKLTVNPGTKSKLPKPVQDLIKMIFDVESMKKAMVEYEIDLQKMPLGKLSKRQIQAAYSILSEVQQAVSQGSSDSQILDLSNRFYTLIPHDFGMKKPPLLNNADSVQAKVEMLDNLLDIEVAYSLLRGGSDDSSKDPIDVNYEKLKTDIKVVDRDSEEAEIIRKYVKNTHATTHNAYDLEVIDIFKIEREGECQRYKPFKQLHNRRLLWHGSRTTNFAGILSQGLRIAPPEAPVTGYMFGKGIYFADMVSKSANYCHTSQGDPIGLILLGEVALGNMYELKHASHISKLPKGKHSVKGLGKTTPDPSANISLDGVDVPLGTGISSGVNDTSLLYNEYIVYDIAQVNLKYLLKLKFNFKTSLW
# test: PARP enzyme activity assay (HT Universal Chemiluminescent PARP Assay Kit, histone-coated wells)
# Format: biochemical
# assay-context: read-out: Inhibition (%) at 30 nM
assay-endpoint: inhibition at 0.03 µM (%)

{"structure-smiles": "N#Cc1cnc(N2CCN(c3nc4c(C(N)=O)cccc4[nH]3)CC2)nc1", "scale-unit": "%", "readout-number": 57}
{"structure-smiles": "CN(C)C(=O)c1ccc(N2CCN(c3nc4c(C(N)=O)cc(F)cc4[nH]3)CC2)nc1", "scale-unit": "%", "readout-number": 56}
{"structure-smiles": "NC(=O)c1cccc2[nH]c(N3CCN(c4ccncn4)CC3)nc12", "scale-unit": "%", "readout-number": 73}
{"structure-smiles": "N#Cc1ncc(N2CCN(c3nc4c(C(N)=O)cc(F)cc4[nH]3)CC2)cn1", "scale-unit": "%", "readout-number": 84}
{"structure-smiles": "NC(=O)c1cc(F)cc2[nH]c(N3CCN(c4ncc(F)cn4)CC3)nc12", "scale-unit": "%", "readout-number": 56}
{"structure-smiles": "NC(=O)c1cccc2[nH]c(N3CCN(c4cc(C(F)(F)F)ncn4)CC3)nc12", "scale-unit": "%", "readout-number": 38}
{"structure-smiles": "NC(=O)c1cc(F)cc2[nH]c(N3CCN(c4ccc(C(F)(F)F)nc4)CC3)nc12", "scale-unit": "%", "readout-number": 66}
{"structure-smiles": "NC(=O)c1cc(F)cc2[nH]c(N3CCN(c4ccc(C(F)(F)F)nn4)CC3)nc12", "scale-unit": "%", "readout-number": 80}
{"structure-smiles": "CNC(=O)c1cnc(N2CCN(c3nc4c(C(N)=O)cc(F)cc4[nH]3)CC2)nc1", "scale-unit": "%", "readout-number": 71}
